# run-description: Solubility of turbinmicin in aqueous solvents
# Format: physicochemical
# test-conditions: aqueous with cosolvent or surfactant or cyclodextrin; mixtures of DMSO and water; read-out: concentration solubilized
measured-property: solubility

// lookup solubility for C/C=C/C=C/C=C/C(=O)OC1C=CCC2C(=O)c3c(O)c4c5c(c3OC12)OCOC5CC1C(=O)c2cc(C)[nH]c(=O)c2C(=O)C41O (stereo not shown)
> 500 µg/mL
